These data points were gathered from the supplement of paper PMC10681739.

# Target Of Assay: ETS1 (UniProt P14921)
# Sequence: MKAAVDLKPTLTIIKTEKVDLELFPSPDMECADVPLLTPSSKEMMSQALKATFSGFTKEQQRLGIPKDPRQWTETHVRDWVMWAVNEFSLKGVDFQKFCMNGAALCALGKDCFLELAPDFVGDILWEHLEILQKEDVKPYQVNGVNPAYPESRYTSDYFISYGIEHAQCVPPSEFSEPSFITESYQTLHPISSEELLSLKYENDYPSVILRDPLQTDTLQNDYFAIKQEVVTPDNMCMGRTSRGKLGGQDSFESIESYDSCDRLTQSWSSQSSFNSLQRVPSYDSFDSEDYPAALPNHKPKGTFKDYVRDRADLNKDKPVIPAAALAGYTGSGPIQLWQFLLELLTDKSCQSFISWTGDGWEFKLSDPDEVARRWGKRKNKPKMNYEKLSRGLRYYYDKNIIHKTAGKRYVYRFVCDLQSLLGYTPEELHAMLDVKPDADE
# Procedure Details: ETS1 binding intensity (PBM fluorescence), ETS1 alone (arbitrary fluorescence units); higher = stronger binding
# Cond: ETS1 concentration 1 nM; RUNX1 concentration 0 nM
Entry flag: True if ETS1 binding intensity reaches 2000; False if it does not.

The following sequences have reported results that may help.
INSERT INTO measurements (sequence_entry, label) VALUES
  ('ACCTTGCCTAGAGGAAGTGGTTTTTCGAATCTGAGT', 'True'),
  ('TTAAACACGGAAGTGCATCGGTTGTTGTGGTTATTC', 'False'),
  ('TTCTTCACTTCCTTCTCTCCGTGGTTTCGCCATTAG', 'False'),
  ('CCCCCACATCCTGTTTGGTTTGTGGGACACCTCAAC', 'True'),
  ('AATAAACAGGAAGGTCTCTTGGAGCTGTGGTCTTGG', 'False');

Req: Identify whether the reported ETS1 binding intensity of the following sequence is 2000 or greater: TCTTTGAGAAGCGGATGTGGTAAACTTGCCTCTGTT
Resp: True

Req: ETS1 binding intensity >= 2000 for GCAGAGAGATTGGCCGGATGCGGTGGCTCACGCCTT ?
Resp: True

Req: ETS1 binding intensity >= 2000 for ATGAACCACTTCCTGTGTGTTCCCACAGAGGTCAGG ?
Resp: True

Req: Kindly determine if ETS1 binding intensity recorded for AGGCTGTGGCGGAAGTGGTCGCGTTACCGCTTGTTT is above or exactly 2000.
Resp: True

Req: Kindly determine if ETS1 binding intensity recorded for GTGCAGGCCGGAAGGAAAAGGGTTGTGGGGCTCATT is above or exactly 2000.
Resp: False

---

# Target Of Assay: RUNX1 (UniProt Q01196)
# Sequence (Q01196 whole entry): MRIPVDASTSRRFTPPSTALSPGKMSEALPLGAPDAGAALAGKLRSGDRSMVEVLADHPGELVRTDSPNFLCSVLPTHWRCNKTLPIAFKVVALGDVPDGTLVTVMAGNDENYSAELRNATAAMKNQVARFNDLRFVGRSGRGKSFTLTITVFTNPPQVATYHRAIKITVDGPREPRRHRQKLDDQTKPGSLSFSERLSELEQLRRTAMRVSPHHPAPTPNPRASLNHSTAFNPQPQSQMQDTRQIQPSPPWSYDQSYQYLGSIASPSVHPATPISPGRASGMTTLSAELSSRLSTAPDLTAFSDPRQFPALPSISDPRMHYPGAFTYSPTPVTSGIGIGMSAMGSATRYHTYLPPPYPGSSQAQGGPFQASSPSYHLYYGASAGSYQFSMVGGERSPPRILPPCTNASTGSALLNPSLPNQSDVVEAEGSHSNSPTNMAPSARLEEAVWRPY
# Procedure Details: RUNX1 binding intensity (PBM fluorescence), RUNX1 alone (arbitrary fluorescence units); higher = stronger binding
# Cond: RUNX1 concentration 2 nM; ETS1 concentration 0 nM
Attribute Measured: RUNX1 binding intensity

Sample records with RUNX1 binding intensity:
INSERT INTO measurements (sequence_entry, attribute_measured, experimental_value) VALUES
  ('AGGGCTGAAACAGGATGTGGTGAGTGAGGTAGGGTG', 'RUNX1 binding intensity', 816),
  ('GGTCCGGAAACGATTCTGGACCTGCGGGTATATCCA', 'RUNX1 binding intensity', 776),
  ('AGCAGGAAGTATGTTGAAAGTCATAACCACAGCAAA', 'RUNX1 binding intensity', 776);

Recorded RUNX1 binding intensity for TTCGGATTCCCGGAAGAACCCGCAGCAGCTCCCAGG on RUNX1 (UniProt Q01196) was 789

---

# Target Of Assay: ETS1 (UniProt P14921)
# Sequence: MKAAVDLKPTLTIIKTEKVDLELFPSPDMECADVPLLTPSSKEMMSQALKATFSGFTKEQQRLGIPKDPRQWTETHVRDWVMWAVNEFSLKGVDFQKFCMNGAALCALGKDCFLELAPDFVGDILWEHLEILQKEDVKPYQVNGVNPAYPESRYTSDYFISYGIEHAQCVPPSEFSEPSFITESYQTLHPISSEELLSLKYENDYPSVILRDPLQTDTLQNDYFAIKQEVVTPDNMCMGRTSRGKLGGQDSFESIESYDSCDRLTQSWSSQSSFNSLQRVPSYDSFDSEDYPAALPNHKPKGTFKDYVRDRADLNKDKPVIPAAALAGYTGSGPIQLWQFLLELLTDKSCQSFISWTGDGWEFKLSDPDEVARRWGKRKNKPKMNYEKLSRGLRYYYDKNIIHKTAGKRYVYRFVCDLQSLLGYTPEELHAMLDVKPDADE
# Procedure Details: ETS1 binding intensity (PBM fluorescence), ETS1 alone (arbitrary fluorescence units); higher = stronger binding
# Cond: ETS1 concentration 1 nM; RUNX1 concentration 0 nM
Attribute Measured: ETS1 binding intensity
The answer should be a number; do not append a unit.

Below: 3 sequences and their reported ETS1 binding intensity.
INSERT INTO measurements (sequence_entry, attribute_measured, experimental_value) VALUES
  ('GTCCCCTCCCCAGGATGTGGCCACCCGCTAGAGCAT', 'ETS1 binding intensity', 1030),
  ('GAGGAAGAGTCTTCCTGTAACCACTAGAGGGCGCTG', 'ETS1 binding intensity', 592),
  ('AATGCAGCATTTCCTCTCCAGTTCACCACAGGCCCC', 'ETS1 binding intensity', 590);

--- query ---
Given item GGATGACATCCGGCACCAACTTAACCACTAATCTCA , the value recorded as its ETS1 binding intensity is 615

---

# Target Of Assay: RUNX1 (UniProt Q01196)
# Procedure Details: RUNX1 binding intensity (PBM fluorescence), RUNX1 alone (arbitrary fluorescence units); higher = stronger binding
# Cond: RUNX1 concentration 2 nM; ETS1 concentration 0 nM
// reported RUNX1 binding intensity for each item listed

Take a look at these entries with their results.
INSERT INTO assay_data (sequence_entry, experimental_value) VALUES
  ('GCCCCAGCCCCCGGATGTGGTGACAGAATCGATACT', 811),
  ('TCGCACCGGAACCCCTTGGCGGATTATGTGGGTTCC', 782),
  ('GGAGAGTTGACTTCCGGCGGCTTGTGGGAGTGCTGG', 771),
  ('TGGGGCTAGGCTTCCGGGGCTCTGCGGTCCTCGGCC', 662),
  ('GATATGGCAGGAAGTAGGGCCTGGAAACCGCACGGC', 954);

Entry CGATTCCGGAGACAGGCCCCACCGTGCGGTAAACTG : RUNX1 binding intensity on RUNX1 (UniProt Q01196) = 835

Noted RUNX1 binding intensity for AAACTACTTTCCTTCCTACCAAAACCACACTAAAGA , tested on RUNX1 (UniProt Q01196): 2140

Here CAGAGAGCGGACTTCCGCGACGCGGGTAAGCCGGGC was tested on RUNX1 (UniProt Q01196), and its RUNX1 binding intensity came to 670

Record CCACCATCTTTCCGGCTCCCTCGCGACCACCACGAC ; system RUNX1 (UniProt Q01196); RUNX1 binding intensity = 1410

Per the reported RUNX1 (UniProt Q01196) data, GGTGCCTGGGGAGGATGTGGGCTGACTGGGAGGGGT has RUNX1 binding intensity of 869

Measured on RUNX1 (UniProt Q01196), GCTCTGCAGGATGTGGCTGTGACCGCAGTGAGGAGC has a documented RUNX1 binding intensity of 1520

Measured on RUNX1 (UniProt Q01196), CGGGACTTCCTGTCTTCCCTGTTGCGGAGCTCTGAA has a documented RUNX1 binding intensity of 780

---

# Target Of Assay: ETS1 (UniProt P14921)
# Sequence: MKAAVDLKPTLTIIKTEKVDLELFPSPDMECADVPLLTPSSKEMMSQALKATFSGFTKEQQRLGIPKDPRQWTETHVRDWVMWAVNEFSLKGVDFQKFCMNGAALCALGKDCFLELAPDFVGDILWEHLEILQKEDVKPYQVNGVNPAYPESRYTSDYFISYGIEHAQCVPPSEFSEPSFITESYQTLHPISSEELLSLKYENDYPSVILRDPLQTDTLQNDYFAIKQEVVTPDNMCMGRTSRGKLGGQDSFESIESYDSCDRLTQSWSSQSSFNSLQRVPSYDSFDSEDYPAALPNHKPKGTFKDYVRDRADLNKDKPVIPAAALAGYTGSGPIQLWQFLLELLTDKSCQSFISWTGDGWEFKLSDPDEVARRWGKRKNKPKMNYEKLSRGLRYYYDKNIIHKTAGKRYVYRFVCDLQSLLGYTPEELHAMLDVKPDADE
# Procedure Details: ETS1 binding intensity (PBM fluorescence), ETS1 alone (arbitrary fluorescence units); higher = stronger binding
# Cond: ETS1 concentration 1 nM; RUNX1 concentration 0 nM
Cut-off 600 on ETS1 binding intensity, inclusive. At or above means YES; below means NO.

Req: Could you please find out whether ACTTGACTTCCTGTGGGGTGTGTGGTGTCTGCACTT has ETS1 binding intensity that meets 600 or exceeds it?
Resp: YES

Req: Would you say TCCCTCATGAGCTTCTTCCGCCCGCAACACGAGACT shows ETS1 binding intensity at minimum 600?
Resp: NO

Req: Form field: ETS1 binding intensity at least 600? Entry: ATGGTGTAGAGAGGATGTGGGCTTTAAGGTCAGAGA
Resp: YES

Req: // inclusive: ETS1 binding intensity at least 600? input: CTACTTTCCGGTCAACGCGGCCTGCGGTACCACCTC
Resp: NO
